The measurements presented in this section are drawn from paper PMC12530842.

# measured.target: GRK5 (Homo sapiens, UniProt P34947)
# Construct: Human GR K5 (residues 1- 590) w ild- type and D 311N mutant w ere expressed in E. co li Rosetta; His tag (inferred from nickel-NTA purification)
# Sequence (P34947 whole entry, the tested form may be a part): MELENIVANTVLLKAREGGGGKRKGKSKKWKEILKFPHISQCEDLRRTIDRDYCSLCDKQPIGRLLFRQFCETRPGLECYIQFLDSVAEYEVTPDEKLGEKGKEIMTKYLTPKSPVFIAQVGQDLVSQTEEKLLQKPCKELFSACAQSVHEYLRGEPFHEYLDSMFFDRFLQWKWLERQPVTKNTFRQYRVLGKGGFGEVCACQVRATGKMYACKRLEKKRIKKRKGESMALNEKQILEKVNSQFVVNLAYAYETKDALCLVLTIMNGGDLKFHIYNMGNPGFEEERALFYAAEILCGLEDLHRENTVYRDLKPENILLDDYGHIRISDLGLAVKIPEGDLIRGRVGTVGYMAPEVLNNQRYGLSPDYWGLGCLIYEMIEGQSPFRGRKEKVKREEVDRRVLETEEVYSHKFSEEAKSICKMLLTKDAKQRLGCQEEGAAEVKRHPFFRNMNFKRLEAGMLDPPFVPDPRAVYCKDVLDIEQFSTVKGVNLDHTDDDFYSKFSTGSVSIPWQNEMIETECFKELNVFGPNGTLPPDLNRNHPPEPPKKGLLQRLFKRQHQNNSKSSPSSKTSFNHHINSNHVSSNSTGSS
# assay.notes: GRK5 kinase inhibition assay, phosphorylation of tubulin ([γ-32P]-ATP)
# details: phosphorylation of the soluble substrate tubulin; ± standard deviation from 3 to 4 independent experiments
# Procedure: The inhibitory potency of synthetic compounds containing the N‐heterocyclic amide functionalities was evaluated against human GRK2, GRK5 and GRK6 using our in vitro assays‐, as reported previously.^[ [35], [37] ^] […] We then investigated the effect of (R)‐ and (S)‐Boc pyrrolidine carboxamide derivatives. […] Inhibit ion assays were conducted in a reaction mixture containing 20 mM H EPES pH 7. […] Quantification was performed using a Personal Molecular Imager and Quantity One 1- D Analysis Software. […]
endpoint: IC50
Express your answer as a number followed by its unit.

compound	IC50
Cc1[nH]c(/C=C2\C(=O)Nc3ccc(C(=O)N[C@H](C)c4ccc(F)cc4)cc32)c(C)c1NC(=O)[C@@H]1CCCN1C(=O)OC(C)(C)C	440 nM

# IC50 lookup, item `Cc1[nH]c(/C=C2\C(=O)Nc3ccc(C(=O)N[C@H](C)c4ccc(F)cc4)cc32)c(C)c1NC(=O)[C@H]1CCCN1`
40 nM

And the next one, CC(=O)N1CCCC1C(=O)Nc1c(C)[nH]c(C=C2C(=O)Nc3ccc(C(=O)NC(C)c4ccc(F)cc4)cc32)c1C (stereo not shown) ?
60 nM

And the next one, `Cc1[nH]c(/C=C2\C(=O)Nc3ccc(C(=O)N[C@H](C)c4ccc(F)cc4)cc32)c(C)c1NC(=O)[C@@H]1CNCCN1` ?
16 nM
